Listing of recorded shrunken log2 fold change by entry.
- System: Escherichia coli TOP10
- assay comment: shrunken log2 fold change of peptide-encoding DNA abundance (4.5 h post-induction vs induction); higher = less antimicrobial activity (less host growth inhibition)
- condition details: time post-induction: 4.5 h; library: site-saturation at positions 5, 18, 19, 20
Respond numerically, and do not add a unit to the figure.

          sequence_content        target_or_system  test_value
0  RRIRYRPPRLPRPRPRPCRRPRP  Escherichia coli TOP10     -0.0474
1  RRIRMRPPRLPRPRPRPWIQPRP  Escherichia coli TOP10      -0.228
2  RRIRIRPPRLPRPRPRPFQIPRP  Escherichia coli TOP10      0.0698
3  RRIRNRPPRLPRPRPRPSNKPRP  Escherichia coli TOP10      -0.259
4  RRIRLRPPRLPRPRPRPMKRPRP  Escherichia coli TOP10     -0.0358
5  RRIRKRPPRLPRPRPRPRYYPRP  Escherichia coli TOP10      -0.248
6  RRIRLRPPRLPRPRPRPHKRPRP  Escherichia coli TOP10      0.0273
7  RRIRKRPPRLPRPRPRPHYKPRP  Escherichia coli TOP10      -0.446
8  RRIRLRPPRLPRPRPRPVMEPRP  Escherichia coli TOP10       0.233
9  RRIRERPPRLPRPRPRPRVHPRP  Escherichia coli TOP10      0.0407

Notebook: RRIRIRPPRLPRPRPRPCPDPRP , shrunken log2 fold change read as -0.127

Item: RRIRDRPPRLPRPRPRPMTQPRP | shrunken log2 fold change: 0.0403

---

- Test system: Escherichia coli TOP10
- assay comment: shrunken log2 fold change of peptide-encoding DNA abundance (4.5 h post-induction vs induction); higher = less antimicrobial activity (less host growth inhibition)
- condition details: time post-induction: 4.5 h; library: site-saturation at positions 5, 18, 19, 20
measured endpoint: shrunken log2 fold change

Reference set (6 entries):
          sequence_content  test_value
0  RRIRCRPPRLPRPRPRPQLPPRP      -0.104
1  RRIRKRPPRLPRPRPRPIFLPRP      0.0688
2  RRIRSRPPRLPRPRPRPFEWPRP      0.0589
3  RRIRIRPPRLPRPRPRPYPCPRP      -0.028
4  RRIRDRPPRLPRPRPRPLRKPRP        1.36
5  RRIRSRPPRLPRPRPRPLMLPRP      -0.581

Documented shrunken log2 fold change of RRIRGRPPRLPRPRPRPTALPRP : 1.12

For RRIRLRPPRLPRPRPRPSRTPRP the sequence record lists shrunken log2 fold change as -0.204

The sequence listed as RRIRHRPPRLPRPRPRPFSWPRP has a reported shrunken log2 fold change of -0.0533

So, RRIRIRPPRLPRPRPRPAPGPRP ? Its shrunken log2 fold change was 0.371

Entry RRIRTRPPRLPRPRPRPRNQPRP , shrunken log2 fold change reported as -0.139

Field shrunken log2 fold change (entry RRIRARPPRLPRPRPRPVKMPRP ) reads 0.163

Entry RRIRSRPPRLPRPRPRPWYSPRP , shrunken log2 fold change reported as -0.257

Record summary for RRIRQRPPRLPRPRPRPYYAPRP : reported shrunken log2 fold change = -0.898

Measured shrunken log2 fold change of RRIRGRPPRLPRPRPRPFKCPRP : -0.307

---

Below: a set of entries, each annotated with reported shrunken log2 fold change.
- Test system: Escherichia coli TOP10
- assay comment: shrunken log2 fold change of peptide-encoding DNA abundance (4.5 h post-induction vs induction); higher = less antimicrobial activity (less host growth inhibition)
- condition details: time post-induction: 4.5 h; library: site-saturation at positions 5, 18, 19, 20
The response must contain the number and no unit.

In [3]: df
Out[3]:
          sequence_content  test_value
0  RRIRSRPPRLPRPRPRPMRLPRP      0.0162
1  RRIRQRPPRLPRPRPRPMIHPRP      -0.471
2  RRIRGRPPRLPRPRPRPHRVPRP      0.0916
3  RRIRPRPPRLPRPRPRPDDCPRP     -0.0649
4  RRIRLRPPRLPRPRPRPFDMPRP      -0.205
5  RRIRRRPPRLPRPRPRPCCYPRP      0.0352
6  RRIRIRPPRLPRPRPRPWDKPRP     -0.0749
7  RRIRARPPRLPRPRPRPNYLPRP     0.00106
8  RRIRKRPPRLPRPRPRPYNWPRP      -0.155
9  RRIRLRPPRLPRPRPRPTWRPRP       0.337

Entry RRIRWRPPRLPRPRPRPITQPRP ; shrunken log2 fold change = -0.0367

Value of measured shrunken log2 fold change for the entry RRIRLRPPRLPRPRPRPRIDPRP : -0.0317

---

Quick reference: shrunken log2 fold change of the listed items.
- Tested on: Escherichia coli TOP10
- assay comment: shrunken log2 fold change of peptide-encoding DNA abundance (4.5 h post-induction vs induction); higher = less antimicrobial activity (less host growth inhibition)
- condition details: time post-induction: 4.5 h; library: site-saturation at positions 5, 18, 19, 20
// no unit string in output, number only

Some solved entries appear below for comparison.
>>> print(df.to_string())
          sequence_content          measured_endpoint  test_value
0  RRIRWRPPRLPRPRPRPLQKPRP  shrunken log2 fold change        1.73
1  RRIRVRPPRLPRPRPRPQQYPRP  shrunken log2 fold change      -0.258

shrunken log2 fold change measured on RRIRNRPPRLPRPRPRPPNSPRP = -0.072

// RRIRVRPPRLPRPRPRPCWDPRP : shrunken log2 fold change value = -0.154

Noted for RRIRWRPPRLPRPRPRPAKFPRP : its shrunken log2 fold change reads 0.0295

Documented shrunken log2 fold change of RRIRERPPRLPRPRPRPHKHPRP : -0.671

Recorded result, RRIRTRPPRLPRPRPRPHWKPRP , shrunken log2 fold change: 0.00556

The sequence RRIRRRPPRLPRPRPRPSPSPRP showed shrunken log2 fold change equal to 0.386

---

- System: Escherichia coli TOP10
- assay comment: shrunken log2 fold change of peptide-encoding DNA abundance (4.5 h post-induction vs induction); higher = less antimicrobial activity (less host growth inhibition)
- condition details: time post-induction: 4.5 h; library: site-saturation at positions 5, 18, 19, 20
t means recorded shrunken log2 fold change is -0.03 or above; f means it is below -0.03.

Examples from the recorded data:
In [3]: df
Out[3]:
          sequence_content        target_or_system  assigned_label
0  RRIRMRPPRLPRPRPRPMMAPRP  Escherichia coli TOP10               t
1  RRIRARPPRLPRPRPRPHTVPRP  Escherichia coli TOP10               t
2  RRIRGRPPRLPRPRPRPKKTPRP  Escherichia coli TOP10               t
3  RRIRLRPPRLPRPRPRPKMPPRP  Escherichia coli TOP10               t
4  RRIRGRPPRLPRPRPRPRMKPRP  Escherichia coli TOP10               t
5  RRIRCRPPRLPRPRPRPQANPRP  Escherichia coli TOP10               t

Ask | Threshold query (shrunken log2 fold change >= -0.03) on RRIRPRPPRLPRPRPRPKSLPRP
Reply | t

Ask | Check the entry RRIRKRPPRLPRPRPRPSKVPRP : does shrunken log2 fold change equal or exceed -0.03?
Reply | f

---

- System: Escherichia coli TOP10
- assay comment: shrunken log2 fold change of peptide-encoding DNA abundance (4.5 h post-induction vs induction); higher = less antimicrobial activity (less host growth inhibition)
- condition details: time post-induction: 4.5 h; library: site-saturation at positions 5, 18, 19, 20
Response key: Yes means shrunken log2 fold change >= -0.2; No means shrunken log2 fold change < -0.2.

In [3]: df
Out[3]:
          sequence_content        target_or_system  assigned_label
0  RRIRMRPPRLPRPRPRPPIDPRP  Escherichia coli TOP10             Yes

Please find the next sequence below.
Ask | Evaluate RRIRVRPPRLPRPRPRPVDAPRP : shrunken log2 fold change at minimum -0.2?
Reply | Yes

---

- Test system: Escherichia coli TOP10;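 note: peptides expressed intracellularly from a pBAD plasmid library in pooled LB shake-flask culture, induced with 0.3% L-arabinose, DNA abundance read by NGS, three biological replicates, DESeq2 with apeglm shrinkage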
- assay comment: shrunken log2 fold change of peptide-encoding DNA abundance (4.5 h post-induction vs induction); higher = less antimicrobial activity (less host growth inhibition)
- condition details: time post-induction: 4.5 h; library: site-saturation at positions 5, 18, 19, 20
Is shrunken log2 fold change at least 0.04? Then satisfied. If not, not satisfied.

>>> print(df.to_string())
          sequence_content  assigned_label
0  RRIRWRPPRLPRPRPRPNGEPRP   not satisfied
1  RRIRLRPPRLPRPRPRPEFRPRP       satisfied
2  RRIRQRPPRLPRPRPRPAHWPRP       satisfied
3  RRIRPRPPRLPRPRPRPMVLPRP       satisfied
4  RRIRSRPPRLPRPRPRPDVQPRP   not satisfied

Ask | Please indicate if the recorded shrunken log2 fold change for RRIRYRPPRLPRPRPRPATCPRP meets or exceeds 0.04.
Reply | satisfied

Ask | Could you please find out whether RRIRQRPPRLPRPRPRPLACPRP has shrunken log2 fold change that meets 0.04 or exceeds it?
Reply | not satisfied

Ask | I'd appreciate it if you could say whether RRIRTRPPRLPRPRPRPCIFPRP has shrunken log2 fold change at least equal to 0.04.
Reply | not satisfied
